Cited source: patent US8053453B2

- system: human TPO receptor (Homo sapiens)
- Construct: expressed in transfected cells
- assay.comment: Proliferation of TPO-dependent cell line UT7/EPO-mpl, MTT method (Assay Examples 1, 3, 4)
- Format: cell-based
- protocol.conditions: UT7/EPO-mpl cells; value in the presence of 10 ng/ml TPO taken as 100% standard; method of Assay Example 1
experimental.endpoint: Efficacy (%) (maximal growth rate)
Note: unit % is implicit; provide only the numeric part.

Q: Check the records and state Efficacy (%) (maximal growth rate) for CC1=NN(c2ccccc2)C(=O)C1=C(C)NNC(=O)c1ccc(O)cc1 [compound 17]
A: 73

Q: Give the value of Efficacy (%) (maximal growth rate) reported for the following: CC1=NN(c2ccc(C(C)(C)C)cc2)C(=O)C1=C(C)NNC(=O)c1cc(O)cc(O)c1 [compound 2]
A: 89

Q: Name the recorded Efficacy (%) (maximal growth rate) of the compound listed here: CC1=NN(c2ccc(C)c(C)c2)C(=O)C1=C(C)NNC(=O)c1ccc(C(=O)O)cc1 [compound 7]
A: 99

Q: Give Efficacy (%) (maximal growth rate) for CC1=NN(c2ccccc2)C(=O)C1=C(C)NNC(=O)c1ccccc1O [compound 16]
A: 58

Q: Note down Efficacy (%) (maximal growth rate) recorded for CC1=NN(c2ccc(C(C)(C)C)cc2)C(=O)C1=C(C)NNC(=O)c1ccc(C(=O)O)cc1 [compound 5]
A: 86

Q: Determine from records and report Efficacy (%) (maximal growth rate) for CC1=NN(c2cccc([N+](=O)[O-])c2)C(=O)C1=C(C)NNC(=O)c1ccc(O)cc1O [compound 86]
A: 105

Q: Check the records and state Efficacy (%) (maximal growth rate) for CC1=NN(c2ccc(C(F)(F)F)cc2)C(=O)C1=C(C)NNC(=O)c1ccc(O)c(O)c1 [compound 34]
A: 99

Q: Name the recorded Efficacy (%) (maximal growth rate) of the compound listed here: CC1=NN(c2ccc(C(F)(F)F)cc2)C(=O)C1=C(C)NNC(=O)c1cccc([N+](=O)[O-])c1 [compound 36]
A: 97

Q: State, in one line, measured Efficacy (%) (maximal growth rate) of CC1=NN(c2ccc(Cl)c(Cl)c2)C(=O)C1=C(C)NNC(=O)c1ccccc1O [compound 61]
A: 91

Q: For the compound CC1=NN(c2ccc(C(C)(C)C)cc2)C(=O)C1=C(C)NNC(=O)c1ccc(N)cc1 [compound 69] , give its measured Efficacy (%) (maximal growth rate) value.
A: 89

Q: Quick one: give measured Efficacy (%) (maximal growth rate) for CC1=NN(c2ccc(C)c(C)c2)C(=O)C1=C(C)NNC(=O)c1ccc([N+](=O)[O-])cc1 [compound 60]
A: 62

Q: Return Efficacy (%) (maximal growth rate) (reported value) for this compound: CC1=NN(c2cccc(C(F)(F)F)c2)C(=O)C1=C(C)NNC(=O)c1cccc(N)c1 [compound 89]
A: 68

Q: State its Efficacy (%) (maximal growth rate) for this compound: CC1=NN(c2ccc(I)cc2)C(=O)C1=C(C)NNC(=O)c1ccccc1[N+](=O)[O-] [compound 42]
A: 71

====

- system: human TPO receptor (Homo sapiens, UniProt P40238)
- Construct: expressed in transfected cells
- Sequence (P40238 26-635): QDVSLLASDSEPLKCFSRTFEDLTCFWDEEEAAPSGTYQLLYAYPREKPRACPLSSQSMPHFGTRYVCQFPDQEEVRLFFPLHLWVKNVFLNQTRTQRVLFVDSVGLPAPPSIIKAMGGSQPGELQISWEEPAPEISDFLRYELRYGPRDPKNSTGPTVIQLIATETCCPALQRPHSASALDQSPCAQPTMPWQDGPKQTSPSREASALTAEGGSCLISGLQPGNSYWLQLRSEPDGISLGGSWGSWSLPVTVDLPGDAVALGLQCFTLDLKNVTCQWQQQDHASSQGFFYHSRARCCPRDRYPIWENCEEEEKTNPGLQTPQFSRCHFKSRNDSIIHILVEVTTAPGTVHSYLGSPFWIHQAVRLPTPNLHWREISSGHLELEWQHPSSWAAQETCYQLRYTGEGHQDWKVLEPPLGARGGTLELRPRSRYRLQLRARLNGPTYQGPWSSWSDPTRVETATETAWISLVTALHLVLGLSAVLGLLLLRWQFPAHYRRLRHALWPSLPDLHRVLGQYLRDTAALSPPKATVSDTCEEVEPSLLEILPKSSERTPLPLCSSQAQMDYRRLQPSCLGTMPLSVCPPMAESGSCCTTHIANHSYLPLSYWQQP
- assay.comment: Proliferation of TPO-dependent cell line UT7/EPO-mpl, WST-8 reagent (Assay Example 5)
- Type: cell-based
- protocol.conditions: WST-8, 4 days
Below, each of the compounds is paired with its reported EC50T (concentration yielding 50% of the growth observed with 10 ng/ml TPO) value.
Just the number in mg/L, nothing appended.

Some entries whose results are on file:
{"query.smiles": "CC1=NN(c2ccc(C(C)(C)C)cc2)C(=O)C1=C(C)NNC(=O)c1ccc(C(=O)O)s1", "result.value": 0.0039}
{"query.smiles": "CC1=NN(c2ccc(C(F)(F)F)cn2)C(=O)C1=C(C)NNC(=O)c1ccc(C(=O)O)cc1", "result.value": 0.069}
{"query.smiles": "COC(=O)c1ccc(C(=O)NNC(C)=C2C(=O)N(c3ccc(C)c(C)c3)N=C2C(F)(F)F)cc1", "result.value": 0.052}

Q: Given the compound "CC(NNC(=O)c1ccc(C(=O)O)cc1)=C1C(=O)N(c2ccc(C)c(C)c2)N=C1C(F)(F)F" , write its reported EC50T (concentration yielding 50% of the growth observed with 10 ng/ml TPO).
A: 0.0033

====

- system: human TPO receptor (Homo sapiens, UniProt P40238)
- Construct: expressed in transfected cells
- assay.comment: Proliferation of TPO-dependent cell line UT7/EPO-mpl, MTT method (Assay Examples 1, 3, 4)
- Assay type: cell-based
- protocol.conditions: UT7/EPO-mpl cells; value in the presence of 10 ng/ml TPO taken as 100% standard; method of Assay Example 1; read-out: Efficacy (%) (maximal growth rate)
experimental.endpoint: Emax
Express the reported value numerically, then name its unit.

Please review the entries below; each comes with its answer.
{"compound": "Cc1ccc(-n2nc(C)c(C=NN3CC(=O)N(c4cccc(C(=O)O)c4)C3=S)c2O)cc1C [Reference Synthetic Example 3, reference compound]", "Emax": "7%"}
{"compound": "CC1=NN(c2ccc(C)c(C)c2)C(=O)C1=C(C)NNC(=O)c1ccccc1O", "Emax": "120%"}

Now examine the next entry.
Q: Identify measured Emax associated with Cc1ccc(-n2nc(C)c(C=NN3C(=O)C(=Cc4cccc(C(=O)O)c4)SC3=S)c2O)cc1C [Reference Synthetic Example 2, reference compound]
A: 12%

====

- system: human TPO receptor (Homo sapiens)
- Construct: expressed in transfected cells
- Sequence (P40238 26-635): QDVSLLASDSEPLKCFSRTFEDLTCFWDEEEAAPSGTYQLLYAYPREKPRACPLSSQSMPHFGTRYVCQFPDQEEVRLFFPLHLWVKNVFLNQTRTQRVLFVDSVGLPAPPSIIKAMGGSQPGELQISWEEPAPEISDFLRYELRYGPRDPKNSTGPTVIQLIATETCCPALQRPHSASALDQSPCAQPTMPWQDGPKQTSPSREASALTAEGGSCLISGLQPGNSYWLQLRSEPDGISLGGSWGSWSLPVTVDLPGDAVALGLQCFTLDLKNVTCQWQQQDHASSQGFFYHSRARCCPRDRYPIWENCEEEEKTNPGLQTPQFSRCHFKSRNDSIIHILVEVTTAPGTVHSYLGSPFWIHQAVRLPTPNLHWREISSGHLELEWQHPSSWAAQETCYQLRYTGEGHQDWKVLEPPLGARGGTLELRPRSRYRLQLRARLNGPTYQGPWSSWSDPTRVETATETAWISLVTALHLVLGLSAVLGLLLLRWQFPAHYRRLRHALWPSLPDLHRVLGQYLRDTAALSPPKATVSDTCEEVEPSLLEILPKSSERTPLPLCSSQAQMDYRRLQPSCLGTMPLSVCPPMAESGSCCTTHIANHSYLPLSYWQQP
- assay.comment: Proliferation of TPO-dependent cell line UT7/EPO-mpl, MTT method (Assay Examples 1, 3, 4)
- Type: cell-based
- protocol.conditions: UT7/EPO-mpl cells; concentration giving 50% of the maximum cell growth observed with the same compound
Quick rule for you: EC50 under 0.007 µg/mL gets Y, anything else gets N.

{"compound": "CC1=NN(c2ccc(C)c(C)c2)C(=O)C1=C(C)NNC(=O)c1ccc(O)cc1 [compound 54]", "class.assignment": "N"}

Now look at this entry.
Q: Please check: EC50 for CC1=NN(c2ccc(C(F)(F)F)cc2)C(=O)C1=C(C)NNC(=O)c1ccc(O)cc1 [compound 31] , strictly under 0.007 µg/mL or not?
A: Y

====

- system: human TPO receptor (Homo sapiens, UniProt P40238)
- Construct: expressed in transfected cells
- assay.comment: Proliferation of TPO-dependent cell line UT7/EPO-mpl, MTT method (Assay Examples 1, 3, 4)
- Format: cell-based
- protocol.conditions: UT7/EPO-mpl cells; value in the presence of 10 ng/ml TPO taken as 100% standard; method of Assay Example 1
experimental.endpoint: Efficacy (%) (maximal growth rate)
// return numeric value only (unit: %, not printed)

Some entries whose results are on file:
{"query.smiles": "CC1=NN(c2ccc(C(C)(C)C)cc2)C(=O)C1=C(C)NNC(=O)c1ccccc1[N+](=O)[O-]", "Efficacy (%) (maximal growth rate)": 99}
{"query.smiles": "CC1=NN(c2ccc(Cl)c(Cl)c2)C(=O)C1=C(C)NNC(=O)c1ccc(C(C)(C)C)cc1", "Efficacy (%) (maximal growth rate)": 71}
{"query.smiles": "CC1=NN(c2ccc(C)c(C)c2)C(=O)C1=C(C)NNC(=O)c1ccc(C(C)(C)C)cc1", "Efficacy (%) (maximal growth rate)": 79}
{"query.smiles": "CC1=NN(c2ccc(C(C)(C)C)cc2)C(=O)C1=C(C)NNC(=O)c1cccc(O)c1", "Efficacy (%) (maximal growth rate)": 84}
{"query.smiles": "CC1=NN(c2ccc(C)c(C)c2)C(=O)C1=C(C)NNC(=O)c1cccc(N)c1", "Efficacy (%) (maximal growth rate)": 77}
{"query.smiles": "CC1=NN(c2cccc(C(F)(F)F)c2)C(=O)C1=C(C)NNC(=O)c1ccc(O)cc1", "Efficacy (%) (maximal growth rate)": 82}
{"query.smiles": "CC1=NN(c2ccc(I)cc2)C(=O)C1=C(C)NNC(=O)c1ccc(O)cc1", "Efficacy (%) (maximal growth rate)": 97}
{"query.smiles": "CC1=NN(c2ccccc2)C(=O)C1=C(C)NNC(=O)c1ccc([N+](=O)[O-])cc1", "Efficacy (%) (maximal growth rate)": 50}

Q: Provide Efficacy (%) (maximal growth rate) value for the following compound: "CC1=NN(c2ccc(C(F)(F)F)cc2)C(=O)C1=C(C)NNC(=O)c1ccc([N+](=O)[O-])cc1"
A: 63

Q: For "CC1=NN(c2ccc(C)c(C)c2)C(=O)C1=C(C)NNC(=O)c1cccc(C(=O)O)c1" , write its Efficacy (%) (maximal growth rate).
A: 99

Q: Write down Efficacy (%) (maximal growth rate) measured for item "CC1=NN(c2ccc(C(C)(C)C)cc2)C(=O)C1=C(C)NNC(=O)c1cc2ccccc2cc1O"
A: 54

Q: Hello, please tell me recorded Efficacy (%) (maximal growth rate) for this one: "CC1=NN(c2ccc(C)c(C)c2)C(=O)C1=C(C)NNC(=O)c1cc2ccccc2cc1O"
A: 53

Q: Give the reported value of Efficacy (%) (maximal growth rate) for this record: "CC1=NN(c2ccc(Cl)c(Cl)c2)C(=O)C1=C(C)NNC(=O)c1ccc(N)cc1"
A: 78

Q: Item "CC1=NN(c2ccc(Cl)c(Cl)c2)C(=O)C1=C(C)NNC(=O)c1ccc(O)cc1" : provide Efficacy (%) (maximal growth rate)
A: 57

Q: Using known records, supply Efficacy (%) (maximal growth rate) for "CC1=NN(c2ccc(C(C)(C)C)cc2)C(=O)C1=C(C)NNC(=O)c1ccc([N+](=O)[O-])cc1"
A: 67

Q: Item "CC1=NN(c2cccc([N+](=O)[O-])c2)C(=O)C1=C(C)NNC(=O)c1cccc([N+](=O)[O-])c1" : provide Efficacy (%) (maximal growth rate)
A: 109
